Assay: in vitro
Settings: African green monkey, Cytotox CC50

{"compound": "CC12CC3CC(C(=O)N[C@H]4CC[C@@H](N)CC4)(C1)CC(c1ccccc1)(C3)C2.Cl (mixture of isomers)", "CC50 / µM": 10.1}
{"compound": "C[C@H]1C[C@@H](NC(=O)C23CC4CC(C)(C2)CC(c2ccccc2)(C4)C3)CCN1 (mixture of isomers)", "CC50 / µM": 11.7}
{"compound": "CCC12CC3CC(C(=O)NC4CCNCC4(C)C)(C1)CC(c1ccccc1)(C3)C2 (racemic)", "CC50 / µM": 5.7}
{"compound": "C[C@@]12CC3CC(C(=O)N[C@H]4CCNC[C@@H]4F)(C1)C[C@](c1ccccc1)(C3)C2", "CC50 / µM": 12.7}
